Test system: RAW264.7 macrophage cells
test-description: Cell viability by MTT method in RAW264.7 cells treated with compounds for 48 hours (no LPS)
Assay type: cell-based, murine
experimental-conditions: 2 μg/mL, RAW264.7, no LPS, mean ± SD
readout-name: Cell viability (%)

molecule	data-value
CC(C)=CCOc1ccc([C@@H]2C(=O)NC(=O)[C@H]2CC(C)C)cc1 (relative stereo)	108
COC(=O)/C(CC(C)C)=C(\C(=O)OC)c1ccc(O)cc1	102
CC(C)C[C@@H]1C(=O)N(O)C(=O)[C@H]1c1ccc(O)cc1 (relative stereo)	100
CC(C)CC1=C(c2ccc(O)cc2)C(=O)OC1=O	99
CC(C)C[C@H]1C(=O)OC(=O)[C@H]1c1ccc(O)cc1 (relative stereo)	80
CC(C)CC1=C(c2ccc(O)cc2)C(=O)NC1=O	97
